Where do these numbers come from? They come from the supplement of paper PMC9170038.

Test system: MS2 coat protein
METHOD_DESCRIPTION: apparent KD of MS2 coat protein; higher = weaker reporter binding
CONDITION_DETAILS: Eterna round: R107; input ligand: tryptophan 2.4 mM
Can you tell me apparent KD of MS2 coat protein for the items I'm about to list?

Need apparent KD of MS2 coat protein, item GGACUAACCAGAAGGAGCGGCACGCAGAAACUGCAAUUUCCUCCACACGAGGAUCACCCGUGUCAGGUAGGUCGCUGGUUAGUCG [ArgBX 29] 22.6 nM

Same question, GGGCGUGUGGUGCGGCGUGCUCCGCUCCGUCGAGGACCGGUACGGCCGCCACUCGACAUGAGGAUCACCCAUGUGCGAGCGCGCG [#1 Exclusion - Tryptophan A Attempt #9 (HarryS)] this time 24.4 nM

Same question, UCAGGAAGAGCGGCCGCCACUGUUUGGCAUGCGGAUGAAGGAACAUGAGGAUCACCCAUGUAGAUUAGGACCGGGCUUGCGGAGA [szeemullin] this time 12.6 nM

Same question, GGUUGGUAUAUAUAUAUAUUGAUUACUGAAGGAGCGGGAAAUAACCCAGGUAGGUCGCAGAGAUCCACAUGAGGAUCACCCAUGU [!0.G] this time 39.1 nM

Same question, `UGUAUGUGAUCUGAUACCAGUCCAACUGGUAAAGCAUGAGGAUCACCCAUGUAAAAUUGGGACCCUUGGCAGCAGAUCGCAUACU` this time 138 nM

Same question, UCAUUGAGAGUCAUCCAGCGUUAAUGGGAUACCAGAGUUCUUUUACUCCCUUGGCAGCCCGGAACAUGAGGAUCACCCAUGUCUG [theeternabot_exclusion_MS2_Theo_A_39] this time 31.8 nM

Same question, AUAACAUGAGGAUCACCCAUGUAAGCAGAUACCAGCUAGGAAACUAGCCCUUGGCAGCUGCAAUCAUGGGUGUGGUAUCUGCUAA [(M1)-(M2)-(T1)-(T2)-(M)'-(T)'_Design5] this time 16.4 nM

Same question, ACCGCAGGUCCUGAUACCAGAGACAUGAGGAUCACCCAUGUCCGAUCGUCCUGCCUCAGGCUCCCUUGGCAGCAGGGCUUGUCCU [Exclusion Theophylline B GF8] this time 14.8 nM

Same question, UAACAUGAGGAUCACCCAUGUUUGAAGGAACGAGGACCGGUACGGCCGCCACUCGACGAGUGGAUGAGAAGUGGGCUUGUGUGCU [Same State Trp A GF9] this time 16.5 nM

Same question, GCCGGACUUUCGGCCGCCACUGAGAGAGUCGUGUGAACAUGAGGAUCACCCAUGUAAUAUAUAUACAGGACCGGGAGGGUUGGGC [4.R] this time 12.4 nM

Same question, CGGCCCUCAGAUGAGGAUCACCCAUCUGAUACCAGCCUGGAAACAGGCCCUUGGCAGCAGAAGGUCAUCAAAGAUGACCAAGCCG [TheoAX 30 #OpenEnded #AlternativeMS2] this time 12 nM

Same question, UACUUGCGGUCGGCCGCCACUACGAGGCAGACCUUCACAUGAGGAUCACCCAUGUAGUCGGCUAGUAGGACCGGGAUGGCAUAAA [Solasoce] this time 16.3 nM

---

System: K4 kissing-loop RNA reporter;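 note: bound reporter read as fluorescence of individual clusters on recovered sequencing chips by microscopy, with normalized cluster intensities fitted with a binding model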
METHOD_DESCRIPTION: apparent KD of K4 kissing-loop reporter; higher = weaker reporter binding
CONDITION_DETAILS: Eterna round: R107; input ligand: FMN 200 uM
Parameter threshold = 400 nM. Response is fulfilled when apparent KD of K4 kissing-loop reporter meets or exceeds it, else not fulfilled.

Threshold query (apparent KD of K4 kissing-loop reporter >= 400 nM) on AAAGAUCUUCUAGAAACUAGAAGAUCAAGAGAGGAUAUCCGAAUUCGGAGAAGGCUCACUAAGUGAUGUUUGGACCCAAAGGGAA [AK3 SS FMN A] fulfilled

Same question, GUCAAGGGUGCGGCCGCCACUUCUAGUGAUGUUAGUUUGUCUUCGUUCAACCGGCGUCUGCACGCAAGGACCGGGCACCAGCGAC [theeternabot_exclusion_KL_Trp_B_10] this time fulfilled

Same question, CGUUUAUAGCAGGAUACCAGUACCCAUUAUGUACGUUAAUAGUAGAGUGAUGUUCUAAAGUACCCUUGGCAGCUUCCCGUGACCC [ExTheophylB.Y] this time not fulfilled

Same question, CUAUAGACCCUUCGGAUAGUGAUGUUGUCACGAGGACCGGUACGGCCGCCACUCGCUGCCACCAUACCGCUUCACGGAACGAGCA [theeternabot_exclusion_KL_Trp_A_7] this time fulfilled

Same question, UUAGGAGUGGAAGGAUAUCCUGGUGUGGGUGGUGUUAGUGAUGUUGGUGGUGCAGUGAUGUUGCGCGGAGAAGGUCCGGUGUUGA [BDazzled - #4 - Exc. FMN B] this time fulfilled

Same question, UGGACCUGACUCGAUAAGAGUCAAUGAGAUACCAGUGACGAAAGUCACCCUUGGCAGCUCCUGCCAGUGAUGUUGGUAAGGUCCU [#SwitchBubble 4 #StaticStem] this time fulfilled
